# Recorded Conditions: in n-butanol, 293.15 K
Measurement Type: solubility (mole fraction)

Exercise: Data request, read-out solubility (mole fraction), for CC(C)(C)C(=O)C(Oc1ccc(Cl)cc1)n1ccnc1 (stereo unspecified)
Solution: 0.132

###

# Recorded Conditions: in n-propanol, 293.15 K
Measurement Type: solubility (mole fraction)
Output spec: single numeric token, no unit.

Exercise: Data request, read-out solubility (mole fraction), for CC(C)(C)C(=O)C(Oc1ccc(Cl)cc1)n1ccnc1 (stereo unspecified)
Solution: 0.139

###

# Recorded Conditions: in n-pentanol, 293.15 K
Measurement Type: solubility (mole fraction)
Output spec: single numeric token, no unit.

Exercise: Data request, read-out solubility (mole fraction), for CC(C)(C)C(=O)C(Oc1ccc(Cl)cc1)n1ccnc1 (stereo unspecified)
Solution: 0.127

Value source: BigSolDB 2.1
